Values were extracted from PubChem BioAssay AID1159580.

methodNotes: chemical genetic growth profiling, strain panel (AID 1159580);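 also: tested at 20 µM; growth read once vehicle control cultures reached saturation at 30 °C; 1 = growth at the plate median or of vehicle wells; lower values mean less growth of the strain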
setupConditions: S. cerevisiae deletion strains, growth OD, locus YLR102C, strain apc9, active compounds read low
The whole screen tested about 5,500 compounds, of which about 2,000 (36%) were called active. Roughly 18% stayed inconclusive and do not appear here. Some of the results follow.
quantityName: normalized growth
Just the number, please, no unit after it.

Observe how each entry below is paired with its result.
NCCCS(=O)(=O)O ... 0.993
CC(=O)Oc1cc(OC(C)=O)c2c(c1)O[C@H](c1ccc(OC(C)=O)c(OC(C)=O)c1)[C@@H](OC(C)=O)C2 ... 0.986
CC(=O)S[C@@H]1CC2=CC(=O)CC[C@]2(C)[C@H]2CC[C@@]3(C)[C@@H](CC[C@@]34CCC(=O)O4)C12 (stereo not given in full) ... 1.02
C[C@]12CCC(=O)C=C1C=CC1C2CC[C@@]2(C)C1CC[C@@]21CCC(=O)O1 (stereo not given in full) ... 0.973
COc1ccc(C(CN(C)C)C2(O)CCCCC2)cc1 (stereo not given) ... 0.989
c1ccc2c(c1)sc1ccccc12 ... 0.974
C[C@]12CCC(=O)C=C1C=CC1C2CC[C@@]2(C)C1CC[C@@]2(O)CCC(=O)O (stereo not given in full) ... 0.999
c1ccc2c(c1)CCCC2C1=NCCN1 (stereo not given) ... 1

What value of normalized growth has been reported for the following compound? O=C1CCC(N2C(=O)c3ccccc3C2=O)C(=O)N1 (stereo not given)
0.991

Quick check: normalized growth of COc1cc(OC)c2c(c1)O[C@H](c1cc(OC)c(OC)c(OC)c1)[C@H](OC(=O)c1cc(OC)c(OC)c(OC)c1)C2 ?
1

----------
methodNotes: chemical genetic growth profiling, strain panel (AID 1159580)
setupConditions: S. cerevisiae deletion strains, growth OD, locus YHR013C, strain ard1
The whole screen tested about 5,500 compounds, of which about 2,000 (36%) were called active. Roughly 18% stayed inconclusive and do not appear here. Cut-off read from the data, not from the text of the source: active = normalized growth mostly below about 0.91 (no sharp cut-off); inconclusive = no clear call, values can overlap the other calls; inactive = mostly above about 0.92. The list shows a part of the results.
Give your call using only these classes: 1.0 (active), 0.0 (inactive)

Here's what some known entries look like.
CC1(C)S[C@@H]2[C@H](NC(=O)[C@H](N)c3ccccc3)C(=O)N2[C@H]1C(=O)O ... 0.0
CCCc1cc(C(N)=S)ccn1 ... 0.0
COc1ccc(C2CNC(=O)C2)cc1OC1CCCC1 (stereo not given) ... 0.0
Oc1cc(O)c2c(c1)O[C@H](c1ccc(O)c(O)c1)[C@@H](O)C2 ... 0.0
c1ccc2c(c1)sc1ccccc12 ... 1.0
CC1(O)CC2C(CC1O)C2(C)C (stereo not given) ... 0.0

How was CCCCC/C=C/CCC(=O)N[C@H]1[C@H](Oc2c3cc4cc2Oc2ccc(cc2Cl)[C@@H](O[C@@H]2O[C@H](CO)[C@@H](O)[C@H](O)[C@H]2NC(C)=O)[C@@H]2NC(=O)[C@H](NC(=O)[C@@H]4NC(=O)[C@H]4NC(=O)C(Cc5ccc(c(Cl)c5)O3)NC(=O)[C@H](N)c3ccc(O)c(c3)Oc3cc(O)cc4c3)c3ccc(O)c(c3)-c3c(OC4O[C@H](CO)[C@@H](O)[C@H](O)[C@@H]4O)cc(O)cc3[C@@H](C(=O)O)NC2=O)O[C@H](CO)[C@@H](O)[C@@H]1O (stereo not given in full) classified in this test?
0.0

Given CCOC(=O)n1ccn(C)c1=S , state the outcome it received in this test.
0.0

----------
methodNotes: chemical genetic growth profiling, strain panel (AID 1159580)
setupConditions: S. cerevisiae deletion strains, growth OD, locus YNL071W, strain lat1, active compounds read low
The whole screen tested about 5,500 compounds, of which about 2,000 (36%) were called active. Not shown: some 18% with an inconclusive outcome. The list shows a part of the results.
quantityName: normalized growth
Please reply with the number alone, leaving off any unit.

A selection of reference data follows.
CN1CC(=O)N=C1N ... 1.03
CN(C)CCOC(c1ccc(Cl)cc1)c1ccccn1 (configuration not stated) ... 1.01

What normalized growth value was documented for this compound, CN1CCC(OC(c2ccccc2)c2ccccc2)CC1 ?
0.983

# normalized growth lookup, item CC1COc2c(N3CCN(C)CC3)c(F)cc3c(=O)c(C(=O)O)cn1c23 (configuration not stated)
0.987

Give the measured normalized growth of Cc1ccccc1C(OCCN(C)C)c1ccccc1 (configuration not stated) .
1

# get_value(readout='normalized growth', item= CCn1cc(C(=O)O)c(=O)c2cc(F)c(N3CCNCC3)nc21 )
0.968

Look at this compound and give its reported normalized growth. COc1c(N2CCNC(C)C2)c(F)cc2c(=O)c(C(=O)O)cn(C3CC3)c12 (configuration not stated)
0.985

// normalized growth lookup, key: CO/N=C1/CN(c2nc3c(cc2F)c(=O)c(C(=O)O)cn3C2CC2)CC1CN (configuration not stated)
1.02

Need normalized growth of COc1ccc(C(CN(C)C)C2(O)CCCCC2)cc1 (configuration not stated) , thanks.
1

Dear colleague, I am looking for the recorded normalized growth of the following compound: Clc1ccc(C(c2ccc(Cl)cc2)C(Cl)(Cl)Cl)cc1
1.02

Given C[C@H]1COc2c(N3CCN(C)CC3)c(F)cc3c(=O)c(C(=O)O)cn1c23 , state its recorded normalized growth.
1

Which measured normalized growth value corresponds to Clc1ccc(C(OCCN2CCCCC2)c2ccccc2)cc1 (configuration not stated) ?
1.02

----------
A collection of compounds and their measured normalized growth
methodNotes: chemical genetic growth profiling, strain panel (AID 1159580);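 also: tested at 20 µM; growth read once vehicle control cultures reached saturation at 30 °C; 1 = growth at the plate median or of vehicle wells; lower values mean less growth of the strain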
setupConditions: S. cerevisiae deletion strains, growth OD, locus YLR342W, strain FKS1 (second series), active compounds read low
Hit rate of the full screen: of about 5,500 compounds, about 2,000 (36%) were called active. Roughly 18% stayed inconclusive and do not appear here. Some of the results follow.
Answer with a bare number; do not write a unit.

Check out these entries, answers already filled in.
COC(=O)CC1C2(C)CC34OC5(C)OC6(C7/C(=C(/O)C(C)C)C(=O)OC(c8ccoc8)C7(C)C(OC(=O)C(C)C)C(OC)C6(O5)C13C)C(OC)C4(OC)C2OC(C)=O (stereo not drawn) ... 0.999
NC(=O)c1ccc[n+]([C@@H]2O[C@H](COP(=O)([O-])OP(=O)(O)OC[C@H]3O[C@@H](n4cnc5c(N)ncnc54)[C@H](OP(=O)(O)O)[C@@H]3O)[C@@H](O)[C@H]2O)c1 ... 1.04
CCCCCCCCC(=O)NCc1ccc(O)c(OC)c1 ... 0.966

Sample O=C1c2ccc(O)cc2O[C@H](c2cc(O)c(O)c(O)c2)[C@H]1O — what was its normalized growth?
0.95

# normalized growth lookup, item Oc1cc(O)c2c(c1)OC(c1cc(O)c(O)c(O)c1)C(O)C2c1c(O)cc(O)c2c1OC(c1cc(O)c(O)c(O)c1)C(O)C2c1c(O)cc(O)c2c1OC(c1cc(O)c(O)c(O)c1)C(O)C2 (stereo not drawn)
0.919

----------
methodNotes: chemical genetic growth profiling, strain panel (AID 1159580);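 also: tested at 20 µM; growth read once vehicle control cultures reached saturation at 30 °C; 1 = growth at the plate median or of vehicle wells; lower values mean less growth of the strain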
setupConditions: S. cerevisiae deletion strains, growth OD, locus YIR030C, strain dcg1, active compounds read low
The whole screen tested about 5,500 compounds, of which about 2,000 (36%) were called active. Another 18% or so got no clear call; they are omitted. The list shows a part of the results.
quantityName: normalized growth
Could you respond with only the numeric value?

CCCCCCCCC(=O)NCc1ccc(O)c(OC)c1 ... 0.983
NS(=O)(=O)c1cc2c(cc1Cl)NC=NS2(=O)=O ... 0.99
COc1ccc(OC)c(C(O)CNC(=O)CN)c1 (configuration not stated) ... 0.986
COc1cc([C@@H]2c3cc4c(cc3C(OC3O[C@@H]5COC(C)O[C@H]5[C@H](O)[C@H]3O)C3COC(=O)[C@@H]32)OCO4)cc(OC)c1O (some centres not stated) ... 0.995
CC(C)NCC(O)COc1cccc2[nH]ccc12 (configuration not stated) ... 0.991

Could you tell me which normalized growth is on file for CN1CC(=O)N=C1N ?
0.998

Form field: reported normalized growth of COc1cc(CNC(=O)CCCC/C=C/C(C)C)ccc1O
0.986

----------
methodNotes: chemical genetic growth profiling, strain panel (AID 1159580);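 also: tested at 20 µM; growth read once vehicle control cultures reached saturation at 30 °C; 1 = growth at the plate median or of vehicle wells; lower values mean less growth of the strain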
setupConditions: S. cerevisiae deletion strains, growth OD, locus YFR019W, strain FAB1
Out of some 5,500 compounds screened, about 2,000 (36%) were called active. Inconclusive results (about 18%) are left out. Rule as the data show it: active = normalized growth mostly below about 0.91 (no sharp cut-off); inconclusive = no clear call, values can overlap the other calls; inactive = mostly above about 0.92. The list shows a part of the results.
Returns: one label drawn from yes for active, no for inactive

Take a look at these entries with their results.
CC1(C)CC(=O)C=C(Sc2nc3ccccc3o2)C1 ... no
Cc1c(C(=O)Sc2ccc(F)cc2F)sc2nc(C(F)(F)F)nn12 ... yes
O=C(Oc1cccc2[nH]ccc12)c1ccc(C(F)(F)F)cc1 ... no
Cc1nn(C)c(C(=O)Sc2ccc(OC(F)(F)F)cc2)c1[N+](=O)[O-] ... no
O=C(ON=C1CCCCC1)c1ccc([N+](=O)[O-])cc1 ... no

Which outcome did this test record for the compound O=[N+]([O-])c1ccc(ON=C2CCCCC2)c([N+](=O)[O-])c1 ?
no
